# pIC50 per entry
assayed.target: AKT1 WT (Homo sapiens)
Sequence (P31749 whole entry): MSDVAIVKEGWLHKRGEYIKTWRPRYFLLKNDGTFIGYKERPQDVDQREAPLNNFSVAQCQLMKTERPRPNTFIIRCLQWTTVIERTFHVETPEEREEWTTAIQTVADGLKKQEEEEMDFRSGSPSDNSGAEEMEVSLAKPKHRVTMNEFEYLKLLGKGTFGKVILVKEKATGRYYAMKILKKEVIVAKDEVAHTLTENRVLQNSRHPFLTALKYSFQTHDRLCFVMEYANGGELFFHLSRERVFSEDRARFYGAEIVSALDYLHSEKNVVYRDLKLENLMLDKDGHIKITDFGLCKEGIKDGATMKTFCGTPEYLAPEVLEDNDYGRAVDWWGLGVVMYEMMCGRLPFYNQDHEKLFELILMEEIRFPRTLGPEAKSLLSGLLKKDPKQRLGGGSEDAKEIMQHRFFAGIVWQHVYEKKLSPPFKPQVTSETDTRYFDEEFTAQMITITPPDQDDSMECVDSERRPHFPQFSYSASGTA
test.method.notes: Live cell AKT1 WT target engagement by NanoBRET competitive probe displacement
test.conditions: HEK293 cells transfected with kinase-NanoLuciferase fusion, 2 h at 37° C.
// field semantics: pIC50 = negative decimal log of concentration (mol/L)

Answered cases to consult:
- molecule: "CN(C)C/C=C/C(=O)Nc1ccccc1C(=O)N[C@H]1CCc2cc(-n3c(-c4cccnc4N)nc4ccc(-n5cccn5)nc43)ccc21"
  pIC50: 7.95
- molecule: "C=CC(=O)N1CCC(N[C@H]2CCc3cc(-n4c(-c5cccnc5N)nc5ccc(-n6ccc(C7CCOCC7)n6)nc54)ccc32)CC1"
  pIC50: 6.80
- molecule: "C=CC(=O)N1CCC(N[C@@H]2c3ccc(-n4c(-c5cccnc5N)nc5ccc(-n6cccn6)nc54)cc3C[C@H]2F)CC1"
  pIC50: 7.70

# return recorded pIC50 for input C=CC(=O)N1CCC(N[C@H]2CCc3cc(-n4c(-c5cccnc5N)nc5ccc(-n6cccn6)nc54)ccc32)C1 (single isomer, unassigned) [Example 57] 7.98

# return recorded pIC50 for input C=CC(=O)N1CCC(N[C@@H]2c3ccc(-n4c(-c5cccnc5N)nc5ccc(-c6ccn(C(F)F)n6)nc54)cc3CC2F)CC1 (some centres unmarked) 5.83

# return recorded pIC50 for input "C=CC(=O)N1CCC(N[C@H]2CCc3cc(-n4c(-c5cccnc5N)nc5ccc(-c6nnc(C)s6)nc54)ccc32)CC1" 6.36

# return recorded pIC50 for input C=CC(=O)N1CCC(N[C@@H]2c3ccc(-n4c(-c5cccnc5N)nc5ccc(-n6cccn6)nc54)cc3CC2F)C[C@H]1C (single isomer, unassigned) [Example 143] 7.22

# return recorded pIC50 for input "C=CC(=O)NCc1ccccc1C(=O)N[C@H]1CCc2cc(-n3c(-c4cccnc4N)nc4ccc(-n5nccn5)nc43)ccc21" 5.53

# return recorded pIC50 for input C#CC1CC(N[C@H]2CCc3cc(-n4c(-c5cccnc5N)nc5ccc(-n6cccn6)nc54)ccc32)CCN1C(=O)C=C (single isomer, unassigned) [Example 114] 8.07

# return recorded pIC50 for input C=CC(=O)N1CCC(N[C@@H]2c3ccc(-n4c(-c5cccnc5N)nc5ccc(-n6cccn6)nc54)cc3CC2F)C[C@H]1C (single isomer, unassigned) [Example 144] 7.59

# return recorded pIC50 for input "C=CC(=O)Nc1c(F)cccc1C(=O)N[C@H]1CCc2cc(-n3c(-c4cccnc4N)nc4ccc(-n5cccn5)nc43)ccc21" 7.46

# return recorded pIC50 for input C=CC(=O)N1CCC(N[C@@H]2c3ccc(-n4c(-c5ccccc5)nc5ccc(-n6cccn6)nc54)cc3CC2F)CC1C(F)F (single isomer, unassigned) [Example 330] 5.83

###

# IC50 per entry
assayed.target: AKT1 E17K (Homo sapiens, UniProt P31749, E17K)
Sequence (P31749 whole entry E17K): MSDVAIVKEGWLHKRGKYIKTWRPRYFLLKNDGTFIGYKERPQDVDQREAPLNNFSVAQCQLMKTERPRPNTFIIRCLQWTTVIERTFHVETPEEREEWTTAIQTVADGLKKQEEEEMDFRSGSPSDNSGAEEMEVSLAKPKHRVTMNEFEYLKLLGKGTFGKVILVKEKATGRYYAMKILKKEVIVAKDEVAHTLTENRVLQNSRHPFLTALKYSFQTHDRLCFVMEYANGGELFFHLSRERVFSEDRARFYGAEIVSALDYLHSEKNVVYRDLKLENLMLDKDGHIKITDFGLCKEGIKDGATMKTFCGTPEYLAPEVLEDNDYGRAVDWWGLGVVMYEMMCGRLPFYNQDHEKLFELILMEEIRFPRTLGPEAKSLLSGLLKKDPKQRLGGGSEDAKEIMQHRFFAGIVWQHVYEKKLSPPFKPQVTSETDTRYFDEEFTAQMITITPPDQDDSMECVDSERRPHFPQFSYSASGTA
test.method.notes: Live cell AKT1 E17K target engagement by NanoBRET competitive probe displacement
test.conditions: HEK293 cells transfected with kinase-NanoLuciferase fusion, 2 h at 37° C.

- compound: "C=CC(=O)N1C[C@H]2COC[C@@H](C1)C2N[C@H]1CCc2cc(-n3c(-c4cccnc4N)nc4ccc(C5CC5)nc43)ccc21 (single isomer, unassigned) [Example 171]"
  meas.value: "> 1000 nM"
- compound: "C=CC(=O)N1CCC2(CC1)CC(N[C@H]1CCc3cc(-n4c(-c5cccnc5N)nc5ccc(-n6cccn6)nc54)ccc31)C2"
  meas.value: "> 1000 nM"
- compound: "C=CC(=O)N1CCC(N[C@H]2CCc3cc(-n4c(-c5cccnc5N)nc5ccc(CN6CCOCC6)nc54)ccc32)CC1"
  meas.value: "> 1000 nM"

# return recorded IC50 for input C=CC(=O)N1CCN(NC2CCc3cc(-n4c(-c5cccnc5N)nc5ccc(-n6cccn6)nc54)ccc32)CC1 (single isomer, unassigned) [Example 147] 151 nM

# return recorded IC50 for input "C=CC(=O)N1CCC(N[C@H]2CCc3cc(-n4c(-c5cccnc5N)nc5ccc(-c6ncco6)nc54)ccc32)CC1" 124 nM

# return recorded IC50 for input C=CC(=O)N1CCC(N[C@@H]2c3ccc(-n4c(-c5ccccc5F)nc5ccc(-n6cccn6)nc54)cc3CC2F)CC1 (single isomer, unassigned) [Example 299] 9.32 nM

# return recorded IC50 for input "C=CC(=O)N1CCC(N[C@H]2CCc3cc(-n4c(-c5cccnc5N)nc5ccc(C6CCC6)nc54)ccc32)CC1" 7.45 nM

# return recorded IC50 for input "C=C(OC)C(=O)Nc1ccccc1C(=O)N[C@H]1CCc2cc(-n3c(-c4cccnc4N)nc4ccc(-n5cccn5)nc43)ccc21" 42.4 nM
